# Procedure Summary: Quantification in postmortem blood and urine of dipyanone-positive forensic cases
# Run Parameters: autoptic heart blood
The label is Condition met for concentration in blood, case #2 below 20 ng/mL and Condition not met for concentration in blood, case #2 equal to or exceeding 20 ng/mL.

Molecule	Answer Label
CNC1(c2ccccc2F)CCCCC1=O (stereo not drawn)	Condition met
CCNC1(c2ccccc2)CCCCC1=O (stereo not drawn)	Condition not met
CNC1(c2ccccc2)CCCCC1=O (stereo not drawn)	Condition met
CC[C@@H]1CN2CC[C@@]3(O)C(=Nc4cccc(OC)c43)[C@@H]2C[C@@H]1/C(=C\OC)C(=O)OC [7-hydroxymitragynine]	Condition met
CCC(=O)C(CC(C)N1CCCC1)(c1ccccc1)c1ccccc1 (stereo not drawn)	Condition not met
CC(N)Cc1ccccc1F (stereo not drawn)	Condition not met

----------
# Procedure Summary: Quantification in postmortem blood and urine of dipyanone-positive forensic cases
# Run Parameters: autoptic urine
Quick reference: concentration in urine, case #2 of the listed items.
Assay Metric: concentration in urine, case #2

Compound	Test Value
CNC1(c2ccccc2)CCCCC1=O (stereo not shown)	23 ng/mL
CNC1(c2ccccc2F)CCCCC1=O (stereo not shown)	> 50 ng/mL
CCNC1(c2ccccc2)CCCCC1=O (stereo not shown)	> 50 ng/mL
CC[C@@H]1CN2CC[C@@]3(O)C(=Nc4cccc(OC)c43)[C@@H]2C[C@@H]1/C(=C\OC)C(=O)OC [7-hydroxymitragynine]	> 200 ng/mL

----------
# System Name: human MOR membrane preparation (Homo sapiens)
# Sequence (P35372 whole entry): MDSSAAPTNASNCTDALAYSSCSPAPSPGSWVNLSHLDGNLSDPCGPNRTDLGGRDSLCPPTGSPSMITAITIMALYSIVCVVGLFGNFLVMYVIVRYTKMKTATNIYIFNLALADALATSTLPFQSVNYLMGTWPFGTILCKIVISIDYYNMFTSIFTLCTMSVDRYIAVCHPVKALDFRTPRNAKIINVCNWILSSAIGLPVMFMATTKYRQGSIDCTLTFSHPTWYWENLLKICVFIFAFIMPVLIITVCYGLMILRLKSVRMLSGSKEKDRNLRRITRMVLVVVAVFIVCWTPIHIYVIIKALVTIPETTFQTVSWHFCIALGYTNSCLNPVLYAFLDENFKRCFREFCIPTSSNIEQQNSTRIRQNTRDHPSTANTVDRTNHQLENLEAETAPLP
# Procedure Summary: biochemical
pEC50: −log10 of the molar value.

Compound	pEC50
CCC(=O)C(CC(C)N1CCCC1)(c1ccccc1)c1ccccc1 (stereo not shown)	7.01

Values were extracted from paper PMC12185669.
